Molecular target: Bile acid receptor (Homo sapiens)
Sequence (Q96RI1 whole entry): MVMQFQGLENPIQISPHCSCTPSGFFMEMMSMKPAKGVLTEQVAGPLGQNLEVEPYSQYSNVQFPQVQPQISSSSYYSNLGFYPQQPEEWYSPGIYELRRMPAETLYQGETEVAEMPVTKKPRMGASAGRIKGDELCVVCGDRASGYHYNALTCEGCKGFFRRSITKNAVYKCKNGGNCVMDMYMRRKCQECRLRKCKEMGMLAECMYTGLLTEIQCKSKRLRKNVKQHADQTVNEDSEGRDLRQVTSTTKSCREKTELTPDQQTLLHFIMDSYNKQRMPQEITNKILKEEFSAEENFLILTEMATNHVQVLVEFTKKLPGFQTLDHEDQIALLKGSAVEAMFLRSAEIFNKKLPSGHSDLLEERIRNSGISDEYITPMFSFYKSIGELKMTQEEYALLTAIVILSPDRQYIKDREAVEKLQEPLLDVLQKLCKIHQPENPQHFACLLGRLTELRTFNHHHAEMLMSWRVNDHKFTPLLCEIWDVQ
Assay: Agonist activity at FXR (unknown origin) transfected into african green monkey CV1 cells assessed as ligand-mediated transcription by luciferase reporter/ transient transfection assay
Type: cell-based, CV-1
Property: EC50 (nM)

[
  {
    "Query smiles": "CC(C)c1cnn(-c2c(Cl)cccc2Cl)c1COc1ccc(/C=C/c2cccc(C(=O)O)c2)c(Cl)c1",
    "EC50 (nM)": 20
  },
  {
    "Query smiles": "CC(C)c1nnn(-c2c(Cl)cccc2Cl)c1COc1ccc(/C=C/c2cccc(C(=O)O)c2)c(Cl)c1",
    "EC50 (nM)": 35
  },
  {
    "Query smiles": "CC(C)c1ncn(CCc2c(Cl)cccc2Cl)c1COc1ccc(/C=C/c2cccc(C(=O)O)c2)c(Cl)c1",
    "EC50 (nM)": 676
  }
]

(a) CC(C)n1nnc(-c2c(Cl)cccc2Cl)c1COc1ccc(/C=C/c2cccc(C(=O)O)c2)c(Cl)c1
(b) CC(C)c1oc(=O)n(CCc2c(Cl)cccc2Cl)c1COc1ccc(/C=C/c2cccc(C(=O)O)c2)c(Cl)c1
(c) CC(C)n1cnc(COc2c(Cl)cccc2Cl)c1COc1ccc(/C=C/c2cccc(C(=O)O)c2)c(Cl)c1
(d) CC(C)c1oc(=O)n(Cc2c(Cl)cccc2Cl)c1COc1ccc(/C=C/c2cccc(C(=O)O)c2)c(Cl)c1
Ask | Sort (4 compounds) by EC50: min first. To answer, write out the labels according to the requested order.
Reply | b, d, a, c
(b: 35 nM, d: 54 nM, a: 145 nM, c: 562 nM)
